# System: Nrf2
# METHOD NOTES: Evaluation of Nrf2 activation ability (Nrf2d-LacZ / Keap1 HEK293 reporter, Beta-Glo luminescence)
# Type: cell-based, human
# RUN PARAMETERS: rated A/B/C, Pharmacological Test Example 1
pEC50: −log10 of the molar value.
Give measured pEC50 for each item. Keep answers brief.

Challenge: Quickly give me recorded pEC50 for COc1cc(-c2ccnc(N3CCCCC3)c2)c2cnn(-c3cc(O)n[s+]3[O-])c2c1 (stereo not shown)
Response given: 5.30 to 6.00

Challenge: Quickly give me recorded pEC50 for CN1CCOc2nc(-c3ccc4c(cnn4-c4cc(O)n[s+]4[O-])c3)ncc21 (stereo not shown)
Response given: > 6.00

Challenge: Quickly give me recorded pEC50 for [O-][s+]1nc(O)cc1-n1ncc2cc(F)ccc21 (stereo not shown)
Response given: 5.30 to 6.00

Challenge: Quickly give me recorded pEC50 for CC(C)(C)OC(=O)N1CCc2c(c(I)nn2-c2cc(O)n[s+]2[O-])C1 (stereo not shown)
Response given: 5.00 to 5.30

Challenge: Quickly give me recorded pEC50 for COc1cc(-c2ccc(N3CCCCC3)nc2)c2cnn(-c3cc(O)n[s+]3[O-])c2c1 (stereo not shown)
Response given: > 6.00

Challenge: Quickly give me recorded pEC50 for [O-][s+]1nc(O)cc1-n1ncc2c1CN(Cc1ccc(C(F)(F)F)nc1)C2 (stereo not shown)
Response given: 5.00 to 5.30

Challenge: Quickly give me recorded pEC50 for CN1CCOc2cc(-c3cc4cnn(-c5cc(O)n[s+]5[O-])c4cn3)cnc21 (single isomer, unassigned)
Response given: > 6.00

Challenge: Quickly give me recorded pEC50 for [O-][s+]1nc(O)cc1-n1ncc2cc(-c3cnc4c(c3)OCCN4CC3CC3)ccc21 (stereo not shown)
Response given: > 6.00

Challenge: Quickly give me recorded pEC50 for CN1CCOc2ccc(-c3ccc4c(cnn4-c4cc(O)n[s+]4[O-])c3)nc21 (stereo not shown)
Response given: > 6.00

Challenge: Quickly give me recorded pEC50 for COc1cccc2c1cnn2-c1cc(O)n[s+]1[O-] (stereo not shown)
Response given: 5.30 to 6.00

----------
# System: Nrf2
# METHOD NOTES: Evaluation of Nrf2 activation ability (Nrf2d-LacZ / Keap1 HEK293 reporter, Beta-Glo luminescence)
# Format: cell-based, human
# RUN PARAMETERS: rated A/B/C, Pharmacological Test Example 1
Give measured EC50 for each item. Keep answers brief.

Challenge: Check Nrf2 data and give EC50 for Cc1nn(-c2cc(O)n[s+]2[O-])c(C)c1I (centres unmarked) .
Response given: 1000 to 5000 nM

Challenge: Check Nrf2 data and give EC50 for [O-][s+]1nc(O)cc1-n1ncc2cc(-c3ccc(N4CCCC4)cn3)ccc21 (centres unmarked) .
Response given: < 1000 nM

Challenge: Check Nrf2 data and give EC50 for Cc1cccc(-c2ccc3c(cnn3-c3cc(O)n[s+]3[O-])c2)n1 (centres unmarked) .
Response given: < 1000 nM

Challenge: Check Nrf2 data and give EC50 for Cc1cc2cnn(-c3cc(O)n[s+]3[O-])c2cc1C (centres unmarked) .
Response given: < 1000 nM

Challenge: Check Nrf2 data and give EC50 for COc1cc(-c2cc(OC)c3cnn(-c4cc(O)n[s+]4[O-])c3c2)ccn1 (centres unmarked) .
Response given: < 1000 nM

Challenge: Check Nrf2 data and give EC50 for [O-][s+]1nc(O)cc1-n1ncc2ccc(-c3ccccc3)cc21 (centres unmarked) .
Response given: 1000 to 5000 nM

Challenge: Check Nrf2 data and give EC50 for COc1ccc(CN2CCc3c(cnn3-c3cc(O)n[s+]3[O-])C2)cn1 (centres unmarked) .
Response given: 1000 to 5000 nM

Challenge: Check Nrf2 data and give EC50 for [O-][s+]1nc(O)cc1-n1ncc2cc(-c3cncc(N4CCCC4)n3)ccc21 (centres unmarked) .
Response given: < 1000 nM

Challenge: Check Nrf2 data and give EC50 for O=C(c1c(Cl)cccc1Cl)c1nn(-c2cc(O)n[s+]2[O-])c2ccccc12 (centres unmarked) .
Response given: 1000 to 5000 nM

Challenge: Check Nrf2 data and give EC50 for [2H]c1cccc(-c2ccc3c(cnn3-c3cc(O)n[s+]3[O-])c2)n1 (centres unmarked) [Example 89] .
Response given: < 1000 nM

Challenge: Check Nrf2 data and give EC50 for [O-][s+]1nc(O)cc1-n1cc(I)cn1 (centres unmarked) .
Response given: 1000 to 5000 nM

Challenge: Check Nrf2 data and give EC50 for COc1cc(C2CC2)c2cnn(-c3cc(O)n[s+]3[O-])c2c1 (centres unmarked) .
Response given: 1000 to 5000 nM

Challenge: Check Nrf2 data and give EC50 for COc1cc(-c2cccc3c2cnn3-c2cc(O)n[s+]2[O-])ccn1 (centres unmarked) .
Response given: 1000 to 5000 nM

Challenge: Check Nrf2 data and give EC50 for [O-][s+]1nc(O)cc1-n1cc(C2CCOCC2)cn1 (centres unmarked) .
Response given: 5000 to 10000 nM

Challenge: Check Nrf2 data and give EC50 for [O-][s+]1nc(O)cc1-n1ncc2cc(Br)ncc21 (centres unmarked) .
Response given: 1000 to 5000 nM

Challenge: Check Nrf2 data and give EC50 for [O-][s+]1nc(O)cc1-n1ncc2cc(-c3ccccc3F)ccc21 (centres unmarked) .
Response given: < 1000 nM

Challenge: Check Nrf2 data and give EC50 for CC(C)(C)OC(=O)N1CCC(c2ccc3c(cnn3-c3cc(O)n[s+]3[O-])c2)CC1 (centres unmarked) .
Response given: < 1000 nM

Challenge: Check Nrf2 data and give EC50 for [O-][s+]1nc(O)cc1-n1ncc2cc(-c3ccccc3)ncc21 (centres unmarked) .
Response given: < 1000 nM

Challenge: Check Nrf2 data and give EC50 for Cc1nn(-c2cc(O)n[s+]2[O-])c2ccc(Cl)cc12 (centres unmarked) .
Response given: 1000 to 5000 nM

Challenge: Check Nrf2 data and give EC50 for N#Cc1nn(-c2cc(O)n[s+]2[O-])c2ccc(Cl)cc12 (centres unmarked) .
Response given: 1000 to 5000 nM

Challenge: Check Nrf2 data and give EC50 for [O-][s+]1nc(O)cc1-n1ncc2cc(-c3cncnc3)ccc21 (centres unmarked) .
Response given: 1000 to 5000 nM

Challenge: Check Nrf2 data and give EC50 for Nc1ccc(-c2ccc3c(cnn3-c3cc(O)n[s+]3[O-])c2)cn1 (centres unmarked) .
Response given: 1000 to 5000 nM

Challenge: Check Nrf2 data and give EC50 for [O-][s+]1nc(O)cc1-n1ncc2cc(-c3ccccn3)ccc21 (centres unmarked) .
Response given: < 1000 nM

Challenge: Check Nrf2 data and give EC50 for Cc1cccc2c1cnn2-c1cc(O)n[s+]1[O-] (centres unmarked) .
Response given: 1000 to 5000 nM

Challenge: Check Nrf2 data and give EC50 for [O-][s+]1nc(O)cc1-n1ncc2ccc(Br)cc21 (centres unmarked) .
Response given: 1000 to 5000 nM

Challenge: Check Nrf2 data and give EC50 for CN1C(=O)COc2cc(-c3ccc4c(cnn4-c4cc(O)n[s+]4[O-])c3)cnc21 (centres unmarked) .
Response given: < 1000 nM

Challenge: Check Nrf2 data and give EC50 for Cc1cncc(-c2cccc3c2cnn3-c2cc(O)n[s+]2[O-])c1 (centres unmarked) .
Response given: 1000 to 5000 nM

Challenge: Check Nrf2 data and give EC50 for [O-][s+]1nc(O)cc1-n1ncc2c(-c3ccc(C4CC4)nc3)cccc21 (centres unmarked) .
Response given: 1000 to 5000 nM

Challenge: Check Nrf2 data and give EC50 for [O-][s+]1nc(O)cc1-n1ncc2cc(-c3cccnc3)ncc21 (centres unmarked) .
Response given: 1000 to 5000 nM

----------
Give measured EC50 for each item. Keep answers brief.
# System: Nrf2
# METHOD NOTES: Evaluation of Nrf2 activation ability (Nrf2d-LacZ / Keap1 HEK293 reporter, Beta-Glo luminescence)
# Assay type: cell-based, human
# RUN PARAMETERS: rated A/B/C, Pharmacological Test Example 1

Challenge: Quickly give me recorded EC50 for CC(C)CN1CCOc2cc(-c3ccc4c(cnn4-c4cc(O)n[s+]4[O-])c3)cnc21 (centres unmarked)
Response given: < 1000 nM

Challenge: Quickly give me recorded EC50 for [O-][s+]1nc(O)cc1-n1ncc2cc(-c3cnc4c(c3)OCCCCN4)ccc21 (centres unmarked)
Response given: < 1000 nM

Challenge: Quickly give me recorded EC50 for O=c1ccc(-c2ccc3c(cnn3-c3cc(O)n[s+]3[O-])c2)c[nH]1 (centres unmarked)
Response given: 1000 to 5000 nM

Challenge: Quickly give me recorded EC50 for [O-][s+]1nc(O)cc1-n1ncc2cccnc21 (centres unmarked)
Response given: 1000 to 5000 nM

Challenge: Quickly give me recorded EC50 for Cc1nc2c(cc1-c1ccc3c(cnn3-c3cc(O)n[s+]3[O-])c1)OCCN2C (centres unmarked)
Response given: < 1000 nM

Challenge: Quickly give me recorded EC50 for O=C(NC1CC1)c1ccc(F)c(-c2ccc3c(cnn3-c3cc(O)n[s+]3[O-])c2)c1 (centres unmarked)
Response given: 5000 to 10000 nM

Challenge: Quickly give me recorded EC50 for CC(C)(C)OC(=O)N1CCCc2nn(-c3cc(O)n[s+]3[O-])cc2C1 (centres unmarked)
Response given: 1000 to 5000 nM

Challenge: Quickly give me recorded EC50 for [O-][s+]1nc(O)cc1-n1ncc2cc(C3CC3)ccc21 (centres unmarked)
Response given: 1000 to 5000 nM

Challenge: Quickly give me recorded EC50 for CN1CCCCOc2cc(-c3ccc4c(cnn4-c4cc(O)n[s+]4[O-])c3)cnc21 (centres unmarked)
Response given: < 1000 nM

Challenge: Quickly give me recorded EC50 for Cc1nn(-c2cc(O)n[s+]2[O-])c(C)c1-c1ccccc1 (centres unmarked)
Response given: 5000 to 10000 nM

Challenge: Quickly give me recorded EC50 for [O-][s+]1nc(O)cc1-n1ncc2ccc(C3=CCOCC3)cc21 (centres unmarked)
Response given: 1000 to 5000 nM

Challenge: Quickly give me recorded EC50 for COCC1CCCN1c1ccc(-c2ccc3c(cnn3-c3cc(O)n[s+]3[O-])c2)cn1 (centres unmarked)
Response given: < 1000 nM

Challenge: Quickly give me recorded EC50 for [O-][s+]1nc(O)cc1-n1ncc2cc(Cl)ccc21 (centres unmarked)
Response given: < 1000 nM

Challenge: Quickly give me recorded EC50 for [O-][s+]1nc(O)cc1-n1ncc2cc(-c3ccccc3)ccc21 (centres unmarked)
Response given: 1000 to 5000 nM
